Consider the following compounds; for each one, report its pEC50 for positive allosteric modulation.
Assay Target: mAChR M1 (UniProt P11229)
Sequence (P11229 1-460): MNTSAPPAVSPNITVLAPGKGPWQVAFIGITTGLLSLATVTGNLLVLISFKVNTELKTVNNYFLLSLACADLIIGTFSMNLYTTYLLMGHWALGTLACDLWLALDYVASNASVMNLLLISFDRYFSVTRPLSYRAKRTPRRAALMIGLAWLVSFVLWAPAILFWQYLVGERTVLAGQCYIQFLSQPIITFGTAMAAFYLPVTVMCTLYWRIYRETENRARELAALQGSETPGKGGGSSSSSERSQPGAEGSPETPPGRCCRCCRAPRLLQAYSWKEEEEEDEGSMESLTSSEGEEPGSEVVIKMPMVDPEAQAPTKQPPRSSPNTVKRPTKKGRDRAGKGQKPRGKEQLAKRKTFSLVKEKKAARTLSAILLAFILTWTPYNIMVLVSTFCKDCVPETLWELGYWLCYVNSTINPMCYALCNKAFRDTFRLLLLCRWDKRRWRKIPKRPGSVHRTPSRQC
Test Description: In vitro cellular calcium flux assay, positive allosteric modulator mode, mAChR M1
Assay type: cell-based, human
Experimental Setup: PAM mode with EC20 carbachol, BHK cells expressing mAChR M1, Examples 76-80 and 82-89 tested in slightly modified procedure

// worked examples, pEC50 for positive allosteric modulation included
Compound: O=C(N[C@H]1CCC(F)(F)C[C@H]1O)c1cn(Cc2ccc(F)cc2)c2cccnc12 (single isomer, unassigned) [Example 36]
Value Observed: 6.3
--
Compound: O=C(N[C@H]1CCCCC[C@@H]1O)c1cn(Cc2ccc(F)cc2)c2cccnc12 (racemic) [Example 28]
Value Observed: 6.6
--
Compound: N#Cc1ccc2c(n1)c(C(=O)N[C@H]1CCCC[C@@H]1O)cn2Cc1ccc(-n2cccn2)cc1 [Example 41]
Value Observed: 6.5
--
Compound: COc1ccc(Cn2cc(C(=O)N[C@H]3CCOC[C@@H]3O)c3nccc(C)c32)cc1F (single isomer, unassigned) [Example 84]
Value Observed: 7.9
--
Compound: O=C(N[C@H]1CCC[C@@H]1O)c1cn(Cc2ccc(F)cc2)c2cccnc12 (racemic) [Example 27]
Value Observed: 6.1
--
Compound: C[C@H]1COCC[C@@H]1NC(=O)c1cn(Cc2ccc(F)cc2)c2cccnc12 (racemic) [Example 19]
Value Observed: 6.0

Now, please, on to the next compound.
### Prompt Any idea what pEC50 for positive allosteric modulation was measured for COc1ccc(Cn2cc(C(=O)N[C@H]3CCOC[C@@H]3O)c3nccc(C)c32)cc1 (single isomer, unassigned) [Example 83] ?
### Response 8.0

----------
I'd be grateful if you could share measured pEC50 for positive allosteric modulation for these entries.
Assay Target: UniProt P11229
Sequence (P11229 1-460): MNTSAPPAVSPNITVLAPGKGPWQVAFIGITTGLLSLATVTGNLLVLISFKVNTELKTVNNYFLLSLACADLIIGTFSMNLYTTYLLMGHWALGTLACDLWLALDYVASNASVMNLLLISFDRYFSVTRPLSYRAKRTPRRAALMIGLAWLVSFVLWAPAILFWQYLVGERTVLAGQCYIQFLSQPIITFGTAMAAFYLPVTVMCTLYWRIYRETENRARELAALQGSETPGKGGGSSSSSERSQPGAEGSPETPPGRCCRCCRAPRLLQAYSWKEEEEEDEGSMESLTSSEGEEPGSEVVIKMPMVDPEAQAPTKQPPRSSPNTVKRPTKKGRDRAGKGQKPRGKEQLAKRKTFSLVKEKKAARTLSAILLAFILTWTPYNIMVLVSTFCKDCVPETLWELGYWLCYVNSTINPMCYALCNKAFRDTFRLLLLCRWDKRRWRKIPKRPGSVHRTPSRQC
Test Description: In vitro cellular calcium flux assay, positive allosteric modulator mode, mAChR M1
Type: cell-based, human
Experimental Setup: PAM mode with EC20 carbachol, BHK cells expressing mAChR M1, Examples 76-80 and 82-89 tested in slightly modified procedure
Experimental: Baby hamster kidney cells stably expressing human or rat mAChR M1 to M5 were utilised for primary and selectivity profiling activities. mAChR M2 and M4 cell lines also stably expressed the chimeric Gαqi5 G-protein. […] Compound preparation was carried out by generation of 11-point, 1 in 3 serial dilution concentration response curves in 100% DMSO. […] Compound driven increases in intracellular calcium flux was measured as an increase in fluorescence (494Ex, 516Em)^9. […]
Give bare numbers.

Completed entries (count: 2):
Compound: COc1ccc(Cn2cc(C(=O)N[C@H]3CCOC[C@@H]3O)c3nccc(Cl)c32)cc1 (single isomer, unassigned) [Example 87]
Readout: pEC50 for positive allosteric modulation
Value Observed: 7.9

Compound: O=C(N[C@@H]1CCC(F)(F)C[C@H]1O)c1cn(Cc2ccc(F)cc2)c2cccnc12 (single isomer, unassigned) [Example 35]
Readout: pEC50 for positive allosteric modulation
Value Observed: 6.1

List reported pEC50 for positive allosteric modulation for each of these compounds:
1. N#Cc1ccnc2c(C(=O)N[C@H]3CCCC[C@@H]3O)cn(Cc3ccc(C(F)(F)F)cc3)c12 [Example 33]
2. O=C(N[C@H]1CCCC[C@@H]1CO)c1cn(Cc2ccc(F)cc2)c2cccnc12 (racemic) [Example 18]
3. C[C@H]1CCCC[C@@H]1NC(=O)c1cn(Cc2ccc(F)cc2)c2cccnc12 (racemic) [Example 20]
4. Cc1ccnc2c(C(=O)N[C@H]3CCOC[C@@H]3O)cn(Cc3ccc(F)cc3)c12 (single isomer, unassigned) [Example 82]

### Response
7.0
6.1
6.1
7.8

### Prompt Short answer please: pEC50 for positive allosteric modulation, UniProt P11229, entry O=C(N[C@@H]1CCOC[C@H]1O)c1cn(Cc2cccc(F)c2)c2c(Cl)ccnc12 (single isomer, unassigned) [Example 86]
### Response 7.6
